Tested on: Nucleic Acid
Assay Explanation: Tested in vitro for inhibition of rat liver microsome-mediated AFB1-DNA at concentration of 100 uM
Assay type: microsomes
Provide the reported inhibition of each item.
One number for each entry, in %.

Look over these answered cases.
>>> result_value("C=CCC1=C[C@]2(OC)[C@H](C)[C@@H](c3ccc4c(c3)OCO4)O[C@]2(OC)CC1=O")
23
>>> result_value("COC(=O)/C=C/C=C/c1ccc2c(c1)OCO2")
61
>>> result_value("C=CCC1=C[C@@](OC)([C@H](C)Cc2ccc3c(c2)OCO3)C(OC)=CC1=O")
13
>>> result_value("C=CCC1=C[C@]2(OC)[C@H](C)[C@@H](c3ccc4c(c3)OCO4)O[C@]2(OC)C[C@@H]1O")
81

# map each compound to its inhibition
1. c1cc2c(cc1[C@H]1OC[C@H]3[C@@H]1CO[C@H]3c1ccc3c(c1)OCO3)OCO2
2. O=C(/C=C/C=C/c1ccc2c(c1)OCO2)N1CCCCC1

Result:
1. 48
2. 57

###

System: Nucleic Acid
Assay Explanation: In vitro binding affinity to rat liver microsome-mediated AFB1-DNA using [3H]- AFB1 radioligand assay at concentration of 100 uM
Assay type: microsomes
Provide the reported Binding (pM 30min-1 (mg of DNA)-1) of each item.
Give bare numbers.

Look over these answered cases.
>>> result_value("C=CCC1=C[C@]2(OC)[C@H](C)[C@@H](c3ccc4c(c3)OCO4)O[C@]2(OC)CC1=O")
108
>>> result_value("C=CCC1=C[C@@](OC)([C@H](C)Cc2ccc3c(c2)OCO3)C(OC)=CC1=O")
122
>>> result_value("O=C(/C=C/C=C/c1ccc2c(c1)OCO2)N1CCCCC1")
56.6
>>> result_value("COC(=O)/C=C/C=C/c1ccc2c(c1)OCO2")
50.7
>>> result_value("c1cc2c(cc1[C@H]1OC[C@H]3[C@@H]1CO[C@H]3c1ccc3c(c1)OCO3)OCO2")
68.2

Q: Please look up its Binding (pM 30min-1 (mg of DNA)-1): "C=CCC1=C[C@]2(OC)[C@H](C)[C@@H](c3ccc4c(c3)OCO4)O[C@]2(OC)C[C@@H]1O"
Result: 24.8
